- System: HEK-hERG cells
- protocolText: Label-free RWG biosensor (Epic) DMR assay, agonism mode, HEK-hERG cells stably expressing hERG
- Type: cell-based, human
- details: amplitudes at 18 min after stimulation; read-out: apparent EC50 of dose-dependent DMR signal in HEK-hERG cells
pEC50: −log10 of the molar value.

| structureString | pEC50 |
| --- | --- |
| CC(=O)c1c(O)c(C)c(O)c(Cc2c(O)c3c(c(C(=O)/C=C/c4ccccc4)c2O)OC(C)(C)C=C3)c1O | ~4.60 |
